Tested on: Hela
Assay: MTS cell proliferation assay, Hela
Format: cell-based, human
Details: Hela cervical cancer, 48 h, read-out: IC50 ± SD, in vitro cytotoxicity Hela
Description: Cell lines were grown with routine culture techniques in RPMI 1640 supplemented with 9% foetal bovine serum at 37 °C in 5% CO2. Cells were plated in 96-well plates at a density of 5000 cells per well. Twelve hours after seeding, cells were treated with various concentrations of test compounds for 48 h. Cell viability was assessed with the MTS assay (Promega) according to the manufacturer's instruction. […]

[
  {
    "compound": "O=C1C(CSC(=S)N2CCSCC2)=C(CSC(=S)N2CCSCC2)C(=O)c2ccccc21 [3f]",
    "IC50 (nM)": 412
  },
  {
    "compound": "O=C1C(CSC(=S)N2CCCC2)=C(CSC(=S)N2CCCC2)C(=O)c2ccccc21 [3g]",
    "IC50 (nM)": 298
  },
  {
    "compound": "O=C1C(CSC(=S)N2CCOCC2)=C(CSC(=S)N2CCOCC2)C(=O)c2ccccc21 [3a]",
    "IC50 (nM)": 337
  },
  {
    "compound": "O=C1C(CSC(=S)N2CCSC2)=C(CSC(=S)N2CCSC2)C(=O)c2ccccc21 [3h]",
    "IC50 (nM)": 1130
  }
]

###

Test system: HCT116
Experiment: MTS cell proliferation assay, HCT116
Format: cell-based, human
Details: HCT116 colon cancer, 48 h, read-out: IC50 ± SD, in vitro cytotoxicity HCT116
IC50 overview

[
  {
    "compound": "O=C1C(CSC(=S)N2CCSC2)=C(CSC(=S)N2CCSC2)C(=O)c2ccccc21 [3h]",
    "result unit": "nM",
    "IC50": 374
  },
  {
    "compound": "O=C1C(CSC(=S)N2CCCC2)=C(CSC(=S)N2CCCC2)C(=O)c2ccccc21 [3g]",
    "result unit": "nM",
    "IC50": 164
  },
  {
    "compound": "O=C1C(CSC(=S)N2CCOCC2)=C(CSC(=S)N2CCOCC2)C(=O)c2ccccc21 [3a]",
    "result unit": "nM",
    "IC50": 214
  },
  {
    "compound": "O=C1C(CSC(=S)N2CCSCC2)=C(CSC(=S)N2CCSCC2)C(=O)c2ccccc21 [3f]",
    "result unit": "nM",
    "IC50": 189
  }
]

###

Test system: Hela
Assay: MTS cell proliferation assay, Hela
Type: cell-based, human
Settings: Homo sapiens, Hela cervical cancer, 48 h, read-out: IC50 ± SD, in vitro cytotoxicity Hela
pIC50: −log10 of the molar value.

[
  {
    "compound": "C=CCN(CC=C)C(=S)SCC1=C(CSC(=S)N(CC=C)CC=C)C(=O)c2ccccc2C1=O",
    "target or test system": "Hela",
    "readout relation": "=",
    "pIC50": 5.46
  },
  {
    "compound": "CN(C)C(=S)SCC1=C(CSC(=S)N(C)C)C(=O)c2ccccc2C1=O",
    "target or test system": "Hela",
    "readout relation": "=",
    "pIC50": 6.91
  },
  {
    "compound": "CC(C)=CC[C@@H](O)C1=CC(=O)c2c(O)ccc(O)c2C1=O [Shikonin, reference compound]",
    "target or test system": "Hela",
    "readout relation": "=",
    "pIC50": 6.09
  },
  {
    "compound": "CCCN(CCC)C(=S)SCC1=C(CSC(=S)N(CCC)CCC)C(=O)c2ccccc2C1=O",
    "target or test system": "Hela",
    "readout relation": "<",
    "pIC50": 5.00
  },
  {
    "compound": "CCN(CC)C(=S)SCC1=C(CSC(=S)N(CC)CC)C(=O)c2ccccc2C1=O",
    "target or test system": "Hela",
    "readout relation": "=",
    "pIC50": 6.60
  }
]

###

Target: PKM2 (Homo sapiens)
Construct: His tag (N)
Sequence (P14618 whole entry): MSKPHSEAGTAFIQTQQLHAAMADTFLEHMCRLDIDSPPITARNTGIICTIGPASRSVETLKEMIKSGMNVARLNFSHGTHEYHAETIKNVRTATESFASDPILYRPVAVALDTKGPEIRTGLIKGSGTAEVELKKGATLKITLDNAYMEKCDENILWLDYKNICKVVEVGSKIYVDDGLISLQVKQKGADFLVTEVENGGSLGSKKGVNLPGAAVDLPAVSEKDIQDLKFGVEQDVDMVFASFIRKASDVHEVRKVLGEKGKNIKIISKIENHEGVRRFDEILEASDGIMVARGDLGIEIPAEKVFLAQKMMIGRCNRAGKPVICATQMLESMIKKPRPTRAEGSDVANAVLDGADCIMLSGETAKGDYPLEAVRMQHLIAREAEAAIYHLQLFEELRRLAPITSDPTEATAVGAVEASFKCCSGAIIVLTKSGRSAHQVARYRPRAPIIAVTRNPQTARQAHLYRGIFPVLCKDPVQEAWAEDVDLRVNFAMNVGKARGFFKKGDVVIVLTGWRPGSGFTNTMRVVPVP
Assay: PKM2 activity assay (fluorescent pyruvate kinase-lactate dehydrogenase coupled assay)
Settings: recombinant human PKM2, fluorescent PK-LDH coupled assay; read-out: IC50 ± SD, PKM2 inhibitory activity
pIC50: −log10 of the molar value.
recorded metric: pIC50

[
  {
    "compound": "C=CCN(CC=C)C(=S)SCC1=C(CSC(=S)N(CC=C)CC=C)C(=O)c2ccccc2C1=O",
    "readout relation": "<",
    "value reported": 5.00
  },
  {
    "compound": "O=C1C(CSC(=S)N2CCSC2)=C(CSC(=S)N2CCSC2)C(=O)c2ccccc21",
    "readout relation": "=",
    "value reported": 6.02
  },
  {
    "compound": "CCN(CC)C(=S)SCC1=C(CSC(=S)N(CC)CC)C(=O)c2ccccc2C1=O",
    "readout relation": "=",
    "value reported": 5.56
  },
  {
    "compound": "O=C1C(CSC(=S)N2CCCC2)=C(CSC(=S)N2CCCC2)C(=O)c2ccccc21",
    "readout relation": "=",
    "value reported": 5.63
  },
  {
    "compound": "CC(C)=CC[C@@H](O)C1=CC(=O)c2c(O)ccc(O)c2C1=O [Shikonin, reference compound]",
    "readout relation": "=",
    "value reported": 5.05
  }
]

###

Tested on: HCT116, MCF7, Hela, H1299 and B16 cells
Assay: MTS cell proliferation assay, range over the tumour cell panel
Type: cell-based
Conditions: range over the five cell lines, read-out: IC50 values against HCT116, MCF7, Hela, H1299 and B16 cells (range over cell lines)
recorded metric: IC50

[
  {
    "smiles string": "CCN(CC)C(=S)SCC1=C(CSC(=S)N(CC)CC)C(=O)c2ccccc2C1=O",
    "value reported": "84 to 251 nM"
  },
  {
    "smiles string": "CN(C)C(=S)SCC1=C(CSC(=S)N(C)C)C(=O)c2ccccc2C1=O",
    "value reported": "69 to 122 nM"
  }
]

###

IC50 overview
Tested on: H1299
Experiment: MTS cell proliferation assay, H1299
Assay type: cell-based, human
Conditions: H1299 lung cancer, 48 h, read-out: IC50 ± SD, in vitro cytotoxicity H1299
recorded metric: IC50 (µM)

[
  {
    "compound": "O=C1C(CSC(=S)N2CCOCC2)=C(CSC(=S)N2CCOCC2)C(=O)c2ccccc21 [3a]",
    "result unit": "µM",
    "value reported": 0.331
  },
  {
    "compound": "O=C1C(CSC(=S)N2CCCC2)=C(CSC(=S)N2CCCC2)C(=O)c2ccccc21 [3g]",
    "result unit": "µM",
    "value reported": 0.247
  },
  {
    "compound": "O=C1C(CSC(=S)N2CCSC2)=C(CSC(=S)N2CCSC2)C(=O)c2ccccc21 [3h]",
    "result unit": "µM",
    "value reported": 0.306
  },
  {
    "compound": "O=C1C(CSC(=S)N2CCSCC2)=C(CSC(=S)N2CCSCC2)C(=O)c2ccccc21 [3f]",
    "result unit": "µM",
    "value reported": 0.206
  }
]

###

Tested on: MCF7
Experiment: MTS cell proliferation assay, MCF7
Format: cell-based, human
Details: MCF7 breast cancer, 48 h, read-out: IC50 ± SD, in vitro cytotoxicity MCF7
pIC50: −log10 of the molar value.
pIC50 overview

[
  {
    "smiles string": "O=C1C(CSC(=S)N2CCOCC2)=C(CSC(=S)N2CCOCC2)C(=O)c2ccccc21",
    "pIC50": 6.47
  },
  {
    "smiles string": "O=C1C(CSC(=S)N2CCSC2)=C(CSC(=S)N2CCSC2)C(=O)c2ccccc21",
    "pIC50": 6.63
  },
  {
    "smiles string": "O=C1C(CSC(=S)N2CCSCC2)=C(CSC(=S)N2CCSCC2)C(=O)c2ccccc21",
    "pIC50": 6.71
  },
  {
    "smiles string": "O=C1C(CSC(=S)N2CCCC2)=C(CSC(=S)N2CCCC2)C(=O)c2ccccc21",
    "pIC50": 6.20
  }
]

###

System: BEAS-2B cells
Assay: Cytotoxicity in normal BEAS-2B cells
Type: cell-based
Conditions: normal human bronchial epithelial cells

[
  {
    "smiles string": "O=C1C(CSC(=S)N2CCSCC2)=C(CSC(=S)N2CCSCC2)C(=O)c2ccccc21",
    "IC50": "11.5 µM"
  }
]

###

pIC50 overview
Target: PKM2 (Homo sapiens)
Construct: His tag (N)
Test: PKM2 activity assay (fluorescent pyruvate kinase-lactate dehydrogenase coupled assay)
Details: recombinant human PKM2, fluorescent PK-LDH coupled assay; read-out: IC50 ± SD, PKM2 inhibitory activity
pIC50: −log10 of the molar value.
recorded metric: pIC50

[
  {
    "compound": "CC1=C(CSC(=S)N2CCCCC2)C(=O)c2ccccc2C1=O [3k, reference compound]",
    "target or test system": "PKM2 (Homo sapiens)",
    "readout relation": "=",
    "value reported": 5.53
  },
  {
    "compound": "O=C1C(CSC(=S)N2CCOCC2)=C(CSC(=S)N2CCOCC2)C(=O)c2ccccc21 [3a]",
    "target or test system": "PKM2 (Homo sapiens)",
    "readout relation": "=",
    "value reported": 5.58
  },
  {
    "compound": "O=C1C(CSC(=S)N2CCSCC2)=C(CSC(=S)N2CCSCC2)C(=O)c2ccccc21 [3f]",
    "target or test system": "PKM2 (Homo sapiens)",
    "readout relation": "=",
    "value reported": 5.98
  },
  {
    "compound": "CN(C)C(=S)SCC1=C(CSC(=S)N(C)C)C(=O)c2ccccc2C1=O [3b]",
    "target or test system": "PKM2 (Homo sapiens)",
    "readout relation": "<",
    "value reported": 5.00
  },
  {
    "compound": "CCCN(CCC)C(=S)SCC1=C(CSC(=S)N(CCC)CCC)C(=O)c2ccccc2C1=O [3d]",
    "target or test system": "PKM2 (Homo sapiens)",
    "readout relation": "=",
    "value reported": 5.51
  }
]
